This collection of values is drawn from patent US20100310549A1.

- target_of_assay: T1, mouse vascular endothelial growth factor receptor-2 Fc chimera (Flk-1-Fc) (mouse, UniProt P35918 20-762)
- T1 construct: bought from R&D Systems; also called mouse VEGF-R2-Fc; Fc part of the bought chimera not given, not described
- test_summary: BIAcore, Flk-1-Fc immobilised on CM5 chip
# Lookup of reported Kd keyed by entry
readout_type: Kd (nM)

E19, E. coli-expressed, His6 (designed binder, soluble E. coli form; N-terminal residues added for expression not described) EVVAATPTSLLISWRHPHFPTRYYRITYGETGGNSPVQEFTVPLQPPTATISGLKPGVDYTITGYAVTVERNGRHLMTPISINYRTEIDKPSQHHHHHH	0.34
E18, E. coli-expressed, His6 (designed binder, soluble E. coli form; N-terminal residues added for expression not described) EVVAATPTSLLISWRHPHFPTRYYRITYGETGGNSPVQEFTVPLQPPTATISGLKPGVDYTITGYAVTVERNGRELNTPISINYRTEIDKPSQHHHHHH	0.33
E29, E. coli-expressed, His6 (designed binder, soluble E. coli form; N-terminal residues added for expression not described) EVVAATPTSLLISWRHPHFPTRYYRITYGETGGNSPVQEFTVPLQPPTATISGLKPGVDYTITGYAVTVERNGRVLMTPISINYRTEIDKPSQHHHHHH	0.37
